Please respond with reported kon for every item in the list.
Molecular target: T1, biotin-labeled mouse ADM (mouse, not fully specified; biotin label (named mouse ADM-C-biotin in Example 1.4; position of the biotin not stated for the other lots))
T1 construct: Synthetic peptide; also called mouse ADM-C-biotin; mADM-Biotin
T1 peptide: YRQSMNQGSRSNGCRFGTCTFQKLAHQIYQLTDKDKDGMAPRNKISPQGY
Assay: BLI (Octet RED96e), as in Example 3

Examples with answers:
| BINDER | MEASURED_ATTRIBUTE | TEST_VALUE |
| --- | --- | --- |
| Ab2004.Am32 (IgG1 antibody) (antibody, V domains shown, Expressed in CHO cells, human IgG1/kappa) VH: QVQLVQSGAEVKKPGASVKVSCKASGYTFTQYGIAWVRQAPGQGLEWMGWISAYQGNTNYAQKLQGRVTMTRDTSTSTAYMELRSLRSDDTAVYYCAREGRWGGSFNIWGQGTMVTVSS VL: DIQMTQSPSSLSASVGDRVTITCRAAEGIGSYLAWYQQKPGKAPKLLIYDASNLETGVPSRFSGSGSGTDFTFTISSLQPEDIATYYCQQYDNLPLTFGGGTKVEIKR | kon | 461000 M⁻¹ s⁻¹ |
| Ab2004.Am37 (IgG1 antibody) (antibody, V domains shown, Expressed in CHO cells, human IgG1/kappa) VH: QVQLVQSGAEVKKPGASVKVSCKASGYTFTSYGISWVRQAPGQGLEWMGWISPYTGKTNYAQKLQGRVTMTRDTSTSTAYMELRSLRSDDTAVYYCAREGRWGGSFNIWGQGTMVTVSS VL: DIQMTQSPSSLSASVGDRVTITCRASQGISSYLAWYQQKPGKAPKLLIYDVSILDAGVPSRFSGSGSGTDFTFTISSLQPEDIATYYCQQYDNLPLTFGGGTKVEIKR | kon | 703000 M⁻¹ s⁻¹ |
| Ab2004.Am36 (IgG1 antibody) (antibody, V domains shown, Expressed in CHO cells, human IgG1/kappa) VH: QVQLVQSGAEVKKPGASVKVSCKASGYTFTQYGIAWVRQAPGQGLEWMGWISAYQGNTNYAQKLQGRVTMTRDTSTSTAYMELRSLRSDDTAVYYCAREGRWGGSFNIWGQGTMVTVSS VL: DIQMTQSPSSLSASVGDRVTITCRASQGISSYLAWYQQKPGKAPKLLIYDASNVDTGVPSRFSGSGSGTDFTFTISSLQPEDIATYYCQQYDNLPLTFGGGTKVEIKR | kon | 427000 M⁻¹ s⁻¹ |
| Ab2004.Am38 (IgG1 antibody) (antibody, V domains shown, Expressed in CHO cells, human IgG1/kappa) VH: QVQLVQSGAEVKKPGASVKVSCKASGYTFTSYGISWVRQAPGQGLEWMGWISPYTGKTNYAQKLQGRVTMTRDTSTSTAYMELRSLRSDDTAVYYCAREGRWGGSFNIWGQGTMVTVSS VL: DIQMTQSPSSLSASVGDRVTITCRASQGISSYLAWYQQKPGKAPKLLIYDTSDLDTGVPSRFSGSGSGTDFTFTISSLQPEDIATYYCQQYDNLPLTFGGGTKVEIKR | kon | 733000 M⁻¹ s⁻¹ |
| Ab2004.Am40 (IgG1 antibody) (antibody, V domains shown, Expressed in CHO cells, human IgG1/kappa) VH: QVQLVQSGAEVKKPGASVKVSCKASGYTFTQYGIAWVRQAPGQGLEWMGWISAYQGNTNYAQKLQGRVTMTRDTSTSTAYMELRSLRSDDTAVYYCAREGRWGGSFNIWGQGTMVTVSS VL: DIQMTQSPSSLSASVGDRVTITCRASQGISSYLAWYQQKPGKAPKLLIYDASNLETGVPSRFSGSGSGTDFTFTISSLQPEDIATYYCQQYDDLPLSFGGGTKVEIKR | kon | 513000 M⁻¹ s⁻¹ |

Please give kon for each item listed below.
1. Ab2004.Am33 (IgG1 antibody) (antibody, V domains shown, Expressed in CHO cells, human IgG1/kappa) VH: QVQLVQSGAEVKKPGASVKVSCKASGYTFTSYGISWVRQAPGQGLEWMGWISPYSGNTNYAQKLQGRVTMTRDTSTSTAYMELRSLRSDDTAVYYCAREGRWGGSFNIWGQGTMVTVSS VL: DIQMTQSPSSLSASVGDRVTITCRASEGISEYLAWYQQKPGKAPKLLIYDASNLETGVPSRFSGSGSGTDFTFTISSLQPEDIATYYCQQYDNLPLTFGGGTKVEIKR
2. Enibarcimab (antibody, V domains shown) VH: QVQLVQSGAEVKKPGSSVKVSCKASGYTFSRYWIEWVRQAPGQGLEWIGEILPGSGSTNYNQKFQGRVTITADTSTSTAYMELSSLRSEDTAVYYCTEGYEYDGFDYWGQGTTVTVSS VL: DVVLTQSPLSLPVTLGQPASISCRSSQSIVYSNGNTYLEWYLQRPGQSPRLLIYRVSNRFSGVPDRFSGSGSGTDFTLKISRVEAEDVGVYYCFQGSHIPYTFGGGTKLEIKR
3. Ab2004.Am34 (IgG1 antibody) (antibody, V domains shown, Expressed in CHO cells, human IgG1/kappa) VH: QVQLVQSGAEVKKPGASVKVSCKASGYTFTHYGIAWVRQAPGQGLEWMGWISAYQGNTNYAQKLQGRVTMTRDTSTSTAYMELRSLRSDDTAVYYCAREGRWGGSFNIWGQGTMVTVSS VL: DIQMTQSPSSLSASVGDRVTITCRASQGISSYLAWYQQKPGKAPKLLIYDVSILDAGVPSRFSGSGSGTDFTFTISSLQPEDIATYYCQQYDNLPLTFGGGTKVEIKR
4. fully human antibody Ab2004.Am01 (expressed antibody) (antibody, V domains shown, also called parent antibody Ab2004.Am01) VH: QVQLVQSGAEVKKPGASVKVSCKASGYTFTSYGISWVRQAPGQGLEWMGWISAYQGNTNYAQKLQGRVTMTRDTSTSTAYMELRSLRSDDTAVYYCAREGRWGGSFNIWGQGTMVTVSS VL: DIQMTQSPSSLSASVGDRVTITCRASQGISSYLAWYQQKPGKAPKLLIYDASNLETGVPSRFSGSGSGTDFTFTISSLQPEDIATYYCQQYDNLPLTFGGGTKVEIK
5. Ab2004.Am31 (IgG1 antibody) (antibody, V domains shown, Expressed in CHO cells, human IgG1/kappa) VH: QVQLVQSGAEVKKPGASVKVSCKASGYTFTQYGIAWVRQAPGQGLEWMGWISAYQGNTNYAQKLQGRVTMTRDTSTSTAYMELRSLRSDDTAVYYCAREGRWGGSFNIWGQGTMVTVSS VL: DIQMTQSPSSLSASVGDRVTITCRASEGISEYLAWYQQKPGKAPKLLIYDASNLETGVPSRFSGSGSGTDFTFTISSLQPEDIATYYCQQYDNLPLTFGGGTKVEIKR
6. Ab2004.Am35 (IgG1 antibody) (antibody, V domains shown, Expressed in CHO cells, human IgG1/kappa) VH: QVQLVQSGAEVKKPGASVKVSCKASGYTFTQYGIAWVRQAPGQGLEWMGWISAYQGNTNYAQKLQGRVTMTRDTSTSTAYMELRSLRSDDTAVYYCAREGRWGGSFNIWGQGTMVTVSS VL: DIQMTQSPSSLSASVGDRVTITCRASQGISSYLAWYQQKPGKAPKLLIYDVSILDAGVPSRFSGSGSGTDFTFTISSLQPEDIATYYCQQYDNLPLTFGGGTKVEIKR

Response line:
1: 769000 M⁻¹ s⁻¹; 2: 597000 M⁻¹ s⁻¹; 3: 492000 M⁻¹ s⁻¹; 4: 434000 M⁻¹ s⁻¹; 5: 537000 M⁻¹ s⁻¹; 6: 456000 M⁻¹ s⁻¹
